Tested on: ES-2 (Ovarian Carcinoma)
experiment_description: combination Emax (second highest fraction inhibited in the dose matrix, 72 h); higher = more inhibition; extreme values may be limits of the assay
measurement_name: combination Emax
Lab note: jot the number down without any unit.

Answer briefly: combination Emax recorded on ES-2 (Ovarian Carcinoma) for CS(=O)(=O)CCNCc1ccc(-c2ccc3ncnc(Nc4ccc(OCc5cccc(F)c5)c(Cl)c4)c3c2)o1 [Lapatinib] + NC1(c2ccc(-c3nc4ccn5c(=O)[nH]nc5c4cc3-c3ccccc3)cc2)CCC1 [MK-2206] (first compound max 10 µM, 7x7, partner max 10 µM)
0.936

Give combination Emax only, for C[C@@H](c1ccc2nccn2c1)n1nnc2ncc(-c3cnn(C)c3)nc21 [Savolitinib] + Cc1c2c(nn1C)CSCc1cc(n(C)n1)CSc1cc(c3ccccc3c1)OCCCc1c(C(=O)O)n(C)c3c-2c(Cl)ccc13 [AZD5991] (first compound max 1 µM, 7x7, partner max 1 µM) , using ES-2 (Ovarian Carcinoma) data.
0.176

Enter recorded combination Emax with ES-2 (Ovarian Carcinoma) for CC(=O)c1c(C)c2cnc(Nc3ccc(N4CCNCC4)cn3)nc2n(C2CCCC2)c1=O [Palbociclib] + CN(CC[C@H](CSC1=CC=CC=C1)NC2=C(C=C(C=C2)S(=O)(=O)NC(=O)C3=CC=C(C=C3)N4CCC(CC4)[C@H](C5=CC=CC=C5C6=CC=C(C=C6)Cl)O)S(=O)(=O)C(F)(F)F)CCO [AZD4320] (first compound max 10 µM, 7x7, partner max 1 µM) here.
0.621

// output combination Emax; input Cc1c2c(nn1C)CSCc1cc(n(C)n1)CSc1cc(c3ccccc3c1)OCCCc1c(C(=O)O)n(C)c3c-2c(Cl)ccc13 [AZD5991] + CCN(CCO)CCCOc1ccc2c(Nc3cc(CC(=O)Nc4cccc(F)c4)[nH]n3)ncnc2c1 [AZD2811] (first compound max 1 µM, 7x7, partner max 1 µM) ; system ES-2 (Ovarian Carcinoma)
0.345

State recorded combination Emax with ES-2 (Ovarian Carcinoma), entry CCc1c2c(nc3ccc(O)cc13)-c1cc3c(c(=O)n1C2)COC(=O)[C@]3(O)CC [SN-38] + CN(C)CCCOc1ccc(-c2ccc3ncc4c(c3c2)n(C2CCOCC2)c(=O)n4C)cn1 [AZD0156] (first compound max 0.3 µM, 7x7, partner max 1 µM) , no comment.
0.912

Please report combination Emax with ES-2 (Ovarian Carcinoma) for item COc1cccc(OCCCN)c1-c1cc(Nc2cnc(C#N)cn2)n[nH]1 [Prexasertib] + CN(C)CCCOc1ccc(-c2ccc3ncc4c(c3c2)n(C2CCOCC2)c(=O)n4C)cn1 [AZD0156] (first compound max 1 µM, 7x7, partner max 1 µM) .
0.863

Tell me its combination Emax on ES-2 (Ovarian Carcinoma): CC1(C)CCC(CN2CCN(c3ccc(C(=O)NS(=O)(=O)c4ccc(NCC5CCOCC5)c([N+](=O)[O-])c4)c(Oc4cnc5[nH]ccc5c4)c3)CC2)=C(c2ccc(Cl)cc2)C1 [Venetoclax] + C[C@@H](Nc1cc(F)cc(F)c1)c1cc(C(=O)N(C)C)cc2c(=O)cc(N3CCOCC3)oc12 [AZD8186] (first compound max 1 µM, 7x7, partner max 3 µM)
0.159

Recall the reported combination Emax of CC1(C)CCC(CN2CCN(c3ccc(C(=O)NS(=O)(=O)c4ccc(NCC5CCOCC5)c([N+](=O)[O-])c4)c(Oc4cnc5[nH]ccc5c4)c3)CC2)=C(c2ccc(Cl)cc2)C1 [Venetoclax] + CN(C)CCCOc1ccc(-c2ccc3ncc4c(c3c2)n(C2CCOCC2)c(=O)n4C)cn1 [AZD0156] (first compound max 1 µM, 7x7, partner max 1 µM) on ES-2 (Ovarian Carcinoma) and write it down.
0.22

Give reported combination Emax for C=CCn1c(=O)c2cnc(Nc3ccc(N4CCN(C)CC4)cc3)nc2n1-c1cccc(C(C)(C)O)n1 [AZD1775] + C1CN(CCC1(C(=O)N[C@@H](CCO)C2=CC=C(C=C2)Cl)N)C3=NC=NC4=C3C=CN4 [Capivasertib] (first compound max 3 µM, partner max 3 µM) (ES-2 (Ovarian Carcinoma))
0.817

Param request: combination Emax | system ES-2 (Ovarian Carcinoma) | item COc1cccc(OCCCN)c1-c1cc(Nc2cnc(C#N)cn2)n[nH]1 [Prexasertib] + Cc1cc2ncnn2cc1Nc1ncc2c(n1)n(C1CCOCC1)c(=O)n2C [AZD7648] (first compound max 1 µM, 7x7, partner max 10 µM)
0.848

Please indicate recorded combination Emax of COc1cccc(OCCCN)c1-c1cc(Nc2cnc(C#N)cn2)n[nH]1 [Prexasertib] + O=C(c1cc(Cc2n[nH]c(=O)c3ccccc23)ccc1F)N1CCN(C(=O)C2CC2)CC1 [Olaparib] (first compound max 1 µM, 7x7, partner max 10 µM) measured with ES-2 (Ovarian Carcinoma).
0.788

Name the value of combination Emax reported for CC1(C)CCC(CN2CCN(c3ccc(C(=O)NS(=O)(=O)c4ccc(NCC5CCOCC5)c([N+](=O)[O-])c4)c(Oc4cnc5[nH]ccc5c4)c3)CC2)=C(c2ccc(Cl)cc2)C1 [Venetoclax] + C=CCn1c(=O)c2cnc(Nc3ccc(N4CCN(C)CC4)cc3)nc2n1-c1cccc(C(C)(C)O)n1 [AZD1775] (first compound max 1 µM, partner max 1 µM) when tested on ES-2 (Ovarian Carcinoma).
0.644

Under ES-2 (Ovarian Carcinoma): report combination Emax of CN(CCO)CC[C@H](CSc1ccccc1)Nc1ccc(S(=O)(=O)NC(=O)c2ccc(N3CCC([C@@H](O)c4ccccc4-c4ccc(Cl)cc4)CC3)cc2)cc1S(=O)(=O)C(F)(F)F [AZD4320] + Cn1cnc2c(F)c(Nc3ccc(Br)cc3Cl)c(C(=O)NOCCO)cc21 [Selumetinib] (first compound max 1 µM, 7x7, partner max 3 µM) .
0.466

* * *

Provide the recorded Bliss excess for the entries that follow.
Tested on: NKM-1 (Acute Myeloid Leukemia)
experiment_description: Bliss excess, mean over the matrix (fraction); higher = more synergy
The reply should be a number, written without any unit.

Given Cc1cc2ncnn2cc1Nc1ncc2c(n1)n(C1CCOCC1)c(=O)n2C [AZD7648] + C=CCn1c(=O)c2cnc(Nc3ccc(N4CCN(C)CC4)cc3)nc2n1-c1cccc(C(C)(C)O)n1 [AZD1775] (first compound max 10 µM, partner max 1 µM) , report its Bliss excess on NKM-1 (Acute Myeloid Leukemia).
-0.0556

Report value: Bliss excess, system: NKM-1 (Acute Myeloid Leukemia), compound: Cc1c2c(nn1C)CSCc1cc(n(C)n1)CSc1cc(c3ccccc3c1)OCCCc1c(C(=O)O)n(C)c3c-2c(Cl)ccc13 [AZD5991] + CN(C)CCCOc1ccc(-c2ccc3ncc4c(c3c2)n(C2CCOCC2)c(=O)n4C)cn1 [AZD0156] (first compound max 1 µM, 7x7, partner max 1 µM)
-0.152

Look up and report measured Bliss excess (NKM-1 (Acute Myeloid Leukemia)) for the following compound: CC1(C)CCC(CN2CCN(c3ccc(C(=O)NS(=O)(=O)c4ccc(NCC5CCOCC5)c([N+](=O)[O-])c4)c(Oc4cnc5[nH]ccc5c4)c3)CC2)=C(c2ccc(Cl)cc2)C1 [Venetoclax] + CCN(CCO)CCCOc1ccc2c(Nc3cc(CC(=O)Nc4cccc(F)c4)[nH]n3)ncnc2c1 [AZD2811] (first compound max 1 µM, 7x7, partner max 1 µM)
0.0697

* * *

System: COLO-684 (Endometrial Carcinoma)
experiment_description: Bliss excess, mean over the matrix (fraction); higher = more synergy
measurement_name: Bliss excess
Number only, no unit.

Answer with the recorded Bliss excess of NC1(C(=O)N[C@@H](CCO)c2ccc(Cl)cc2)CCN(c2ncnc3[nH]ccc23)CC1 [Capivasertib] + C[C@@H]1COCCN1C2=NC(=NC(=C2)C3(CC3)[S@](=N)(=O)C)C4=C5C=CNC5=NC=C4 [AZD6738] (first compound max 10 µM, 7x7, partner max 10 µM) only.
-0.0262

Determine from records and report Bliss excess for Cc1c2c(nn1C)CSCc1cc(n(C)n1)CSc1cc(c3ccccc3c1)OCCCc1c(C(=O)O)n(C)c3c-2c(Cl)ccc13 [AZD5991] + C[C@@H](Nc1cc(F)cc(F)c1)c1cc(C(=O)N(C)C)cc2c(=O)cc(N3CCOCC3)oc12 [AZD8186] (first compound max 1 µM, 7x7, partner max 3 µM)
-0.0292

Consider the molecule CC1(C)CCC(CN2CCN(c3ccc(C(=O)NS(=O)(=O)c4ccc(NCC5CCOCC5)c([N+](=O)[O-])c4)c(Oc4cnc5[nH]ccc5c4)c3)CC2)=C(c2ccc(Cl)cc2)C1 [Venetoclax] + COc1cc(Nc2ncc3c(n2)-c2ccc(Cl)cc2C(c2c(F)cccc2OC)=NC3)ccc1C(=O)O [Alisertib] (first compound max 1 µM, 7x7, partner max 10 µM) . State its measured Bliss excess.
-0.0153

* * *

Would you mind telling me the reported combination Emax of each entry?
Tested on: LAMA-84 (Chronic Myelogenous Leukemia)
experiment_description: combination Emax (second highest fraction inhibited in the dose matrix, 72 h); higher = more inhibition; extreme values may be limits of the assay
No unit in the answer, please; the number alone is enough.

Tell me measured combination Emax for CCc1c2c(nc3ccc(O)cc13)-c1cc3c(c(=O)n1C2)COC(=O)[C@]3(O)CC [SN-38] + CN(C)CCCOc1ccc(-c2ccc3ncc4c(c3c2)n(C2CCOCC2)c(=O)n4C)cn1 [AZD0156] (first compound max 0.3 µM, 7x7, partner max 1 µM) please.
0.94

For the molecule C[C@@H]1COCCN1c1cc(C2([S@](C)(=N)=O)CC2)nc(-c2ccnc3[nH]ccc23)n1 [AZD6738] + Nc1ccn([C@@H]2O[C@H](CO)[C@@H](O)C2(F)F)c(=O)n1 [Gemcitabine] (first compound max 10 µM, 7x7, partner max 0.3 µM) , report combination Emax.
0.976

State, in one line, measured combination Emax of NC1(C(=O)N[C@@H](CCO)c2ccc(Cl)cc2)CCN(c2ncnc3[nH]ccc23)CC1 [Capivasertib] + COc1nnc2ccc(N3CCC(c4ccc(OCCN5CCN(C)C(=O)[C@H]5C)cc4)CC3)nn12 [AZD5153] (first compound max 10 µM, 7x7, partner max 1 µM)
0.907

State its combination Emax: NC1(C(=O)N[C@@H](CCO)c2ccc(Cl)cc2)CCN(c2ncnc3[nH]ccc23)CC1 [Capivasertib] + CC(C)n1c(=O)n(C)c2cnc3cc(F)c(-c4ccc(OCCCN5CCCCC5)nc4)cc3c21 [AZD1390] (first compound max 10 µM, 7x7, partner max 0.3 µM)
0.328
